The measured values listed here are drawn from the supplement of paper PMC12338614.

B1: library; numbered along this chain (parent)
chain: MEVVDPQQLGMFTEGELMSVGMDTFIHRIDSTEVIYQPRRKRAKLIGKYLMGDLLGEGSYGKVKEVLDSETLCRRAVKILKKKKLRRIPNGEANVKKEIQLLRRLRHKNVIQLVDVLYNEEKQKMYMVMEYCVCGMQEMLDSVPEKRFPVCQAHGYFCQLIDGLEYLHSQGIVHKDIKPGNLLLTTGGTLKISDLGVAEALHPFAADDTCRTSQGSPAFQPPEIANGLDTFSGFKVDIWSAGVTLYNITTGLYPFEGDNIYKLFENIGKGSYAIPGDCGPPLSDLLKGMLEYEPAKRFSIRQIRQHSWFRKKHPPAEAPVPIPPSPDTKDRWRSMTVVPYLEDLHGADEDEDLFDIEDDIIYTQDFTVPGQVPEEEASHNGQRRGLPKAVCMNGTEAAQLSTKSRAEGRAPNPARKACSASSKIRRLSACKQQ

# Variants of: B1
# Test: STK11 functional score (HeLa growth suppression), rescaled enrichment; synonymous median = 1, nonsense median = 0 (normalised score)
# Test parameters: with HeLa; variant type: missense
The entries below are paired with their reported STK11 functional score.
Attribute measured: STK11 functional score

H154L; 0.189
E349G; 0.983
A318I; 1.49
T71M; 0.604
I260V; 1.07
H107I; 0.0231
R415F; 0.952
G279H; 1.6
N266R; 1.3
D284R; 1.55
Q123C; 1.35
L72Y; 1.04
G163V; 0.0343
A429I; 1.63
